The entries below come with measured GI50 values attached.
System: HL-60
EXPERIMENTAL_DETAILS: NCI tumour cell line growth inhibition, 48 h
Calls of active or inactive are those of the source. No stated cut-off is given here; in the data, active = GI50 up to about 1.1 µM and inactive = higher.
QUANTITY: GI50

INSERT INTO assay_data (compound, quantity, data_value) VALUES
  ('C[C@@H](CN1CC(=O)NC(=O)C1)N1CC(=O)NC(=O)C1 [DEXRAZOXANE]', 'GI50', '51.1 µM (inactive)'),
  ('COC(=O)c1cc2cc3c(c(O)c2c(=O)o1)O[C@@]1(Oc2c(O)c4c(c(O)c2[C@H]1OC1CC(OC)C(O)C(C)O1)C(=O)C=C(OC)C4=O)[C@H](O)C3 (stereo not given in full)', 'GI50', '0.719 µM (active)'),
  ('O=C(Nc1ccc(N=C=S)cc1Cl)c1cc(Br)cc(Br)c1O', 'GI50', '34.5 µM (inactive)'),
  ('CN(C)CCNC(=O)c1ccc(Cl)c2ccc(-c3ccccc3)nc12', 'GI50', '2.58 µM (inactive)'),
  ('Clc1ccc(CCN(CCc2ccc(Cl)c(Cl)c2)CCN2CCCC2)cc1Cl', 'GI50', '1.39 µM (inactive)'),
  ('CCn1cc(C(=O)O)c(=O)c2cc3c(cc21)S(=O)(=O)CC3', 'GI50', '> 100 µM (inactive)'),
  ('Nc1ccc(-c2nc3ccccc3s2)cc1Cl', 'GI50', '> 92.3 µM (inactive)'),
  ('CCOC(=O)C1(C(=O)OCC)C[C@@H](C)[C@@H](O)C1', 'GI50', '89.9 µM (inactive)'),
  ('CC1(C)O[C@@H]2COC(=O)[C@@H]2O1', 'GI50', '> 100 µM (inactive)'),
  ('CC(C)(C)COS(=O)OCC(C)(C)C', 'GI50', '> 100 µM (inactive)'),
  ('Clc1ccc(NCNC2Nc3ccccc3N2)cc1Cl', 'GI50', '41.3 µM (inactive)'),
  ('COc1nc(C)nc2sc3c(c12)CCCC3', 'GI50', '> 100 µM (inactive)'),
  ('CCOC(=O)C1Oc2ccc([N+](=O)[O-])cc2C1(C)O (stereo not given)', 'GI50', '> 100 µM (inactive)'),
  ('COc1ccccc1/C(=N\OCCC(=O)O)c1cccs1', 'GI50', '> 100 µM (inactive)'),
  ('Cc1ccc(S(=O)(=O)NC(=O)NCC(=O)NCC(=O)O)cc1', 'GI50', '> 100 µM (inactive)'),
  ('Nc1ccc(Sc2c3ccccc3nc3ccccc23)cc1', 'GI50', '2.96 µM (inactive)'),
  ('CN(C)CCCNC(=O)c1cc(NC(=O)c2cc(NC(=O)[C@@H]3C[C@H]3C(=O)Nc3cc(C(=O)Nc4cc(C(=O)NCCCN(C)C)n(C)c4)n(C)c3)cn2C)cn1C', 'GI50', '> 100 µM (inactive)'),
  ('CC1CC(C)CC(C)C(O)/C(C#N)=C/C=C/CC(C2CCCC2C(=O)O)OC(=O)CC(O)C(C)C1 (stereo not given)', 'GI50', '0.0137 µM (active)'),
  ('Cc1ccc(NCCN(C)C)c2c(=O)c3cc(O)ccc3sc12', 'GI50', '0.416 µM (active)'),
  ('C=C[C@@H](C)[C@H](NS(=O)(=O)c1ccc(C)cc1)C(=O)OCC', 'GI50', '57 µM (inactive)'),
  ('Cc1nn(-c2ccccc2)c2nc(S)cnc12', 'GI50', '> 100 µM (inactive)'),
  ('COCOCC1CCCN1CN1CCC[C@H]1COCOC (stereo not given in full)', 'GI50', '17.6 µM (inactive)'),
  ('COC(=O)[C@H](Cc1ccccc1)NC(=O)[C@H](Cc1ccccc1)NC(=O)CN1C(=O)[C@@H]2C3C=CC(C3)[C@@H]2C1=O', 'GI50', '11 µM (inactive)'),
  ('CN(C)C(=N)NC(N)=S', 'GI50', '> 100 µM (inactive)'),
  ('OB1OCc2ccccc21 [BENZOXABOROLE]', 'GI50', '> 100 µM (inactive)'),
  ('CC1CC=CC(O)C1 (stereo not given)', 'GI50', '> 100 µM (inactive)'),
  ('CC1(c2cccc(C(F)(F)F)c2)CC(c2cccc(C(F)(F)F)c2)=C(C#N)C(=C(C#N)C#N)N1 (stereo not given)', 'GI50', '15.5 µM (inactive)'),
  ('CN(C)CCNc1ccc2ncnc3c2c1C(=O)c1ccccc1-3', 'GI50', '2.58 µM (inactive)'),
  ('Nc1nc(SCc2ccc([N+](=O)[O-])cc2)nc2c1ncn2C1OC(CO)C(O)C1O (stereo not given)', 'GI50', '> 100 µM (inactive)'),
  ('CC(=O)NC1C(CO)O[C@@H]2OC(C)(C)O[C@H]12 (stereo not given in full)', 'GI50', '> 100 µM (inactive)');

----------
Test system: OVCAR-3
EXPERIMENTAL_DETAILS: NCI tumour cell line growth inhibition, 48 h
The source made the active and inactive calls. No stated cut-off is given here; in the data, active = GI50 up to about 1.1 µM and inactive = higher.
Labels: 1 (active), -1 (inactive)

INSERT INTO assay_data (molecule, assigned_category) VALUES
  ('OC(c1ccc(F)cc1)(c1ccc(F)cc1)C1CC1', -1),
  ('O=[N+]([O-])c1cccc2nc3ccccc3c(NCCC[N+]3([O-])CCOCC3)c12', 1),
  ('Nc1c(S(=O)(=O)c2ccccc2)c2nc3ccccc3nc2n2c1nc1ccccc12', -1),
  ('COC(=O)C(=O)C(C(=O)C(=O)Nc1ccccc1C(=O)OC)c1nc2ccc(C(=O)c3ccccc3)cc2nc1O (stereo not given)', -1),
  ('Cc1nc(-n2nc(-c3ccccc3)cc2-c2ccccc2)sc1C(=O)/C=C/c1ccc(Cl)cc1', -1);

----------
The entries below come with measured GI50 values attached.
System: NCI-H23
EXPERIMENTAL_DETAILS: NCI tumour cell line growth inhibition, 48 h
Active and inactive are the calls of the source. Cut-off read from the data, not from the text of the source: active = GI50 up to about 1.1 µM and inactive = higher.
QUANTITY: GI50

INSERT INTO results (molecule, data_value) VALUES
  ('COc1cc([C@@H]2c3cc4c(cc3[C@@H](NC(=O)c3cccc([N+](=O)[O-])c3)C3COC(=O)[C@@H]32)OCO4)cc(OC)c1O (stereo not given in full)', '0.189 µM (active)'),
  ('N#CC(C#N)C1CN2CCC1CC2 (stereo not given)', '> 100 µM (inactive)'),
  ('CSC1CC2C(CC1(C)O)C2(C)C (stereo not given)', '> 100 µM (inactive)'),
  ('CC(C)(C)c1cc(C(C)(C)C)c(SSc2c(C(C)(C)C)cc(C(C)(C)C)c(O)c2O)c(O)c1O', '10.3 µM (inactive)'),
  ('CN(C)C(=N)NC(N)=S', '> 100 µM (inactive)');

----------
Test system: Hs-578T
EXPERIMENTAL_DETAILS: NCI tumour cell line growth inhibition, 48 h
Calls of active or inactive are those of the source. Rule as the data show it: active = GI50 up to about 1.1 µM and inactive = higher.
QUANTITY: GI50

INSERT INTO measurements (compound, quantity, data_value) VALUES
  ('O=C(O)CCCSc1nc2ccccc2s1', 'GI50', '> 100 µM (inactive)'),
  ('COCn1c2ccc(OC(C)=O)cc2c2c(=O)oc(C)nc21', 'GI50', '> 100 µM (inactive)'),
  ('C=C1C(=O)C23CC1C[C@H](OC(C)=O)C2C1(C)C(OC(C)=O)C[C@H](O)C(C)(C)[C@H]1C(O)[C@@H]3OC(C)=O (some centres undefined)', 'GI50', '15.8 µM (inactive)'),
  ('CCOC(=O)C1(C(=O)OCC)C[C@@H](C)[C@@H](O)C1', 'GI50', '> 100 µM (inactive)'),
  ('CCOC(=O)CCC(NC(=O)c1ccc(Oc2nc3ccc(C(F)(F)F)cc3nc2-c2ccccc2)cc1)C(=O)OCC (centres undefined)', 'GI50', '3.33 µM (inactive)'),
  ('COc1ccc2cc3[n+](cc2c1OC)CCc1cc2c(cc1-3)OCO2 [BERBERINE CHLORIDE]', 'GI50', '10 µM (inactive)'),
  ('CCOC(=O)CC[C@@H](NC(=O)c1ccc(NCc2ccc3nc(OC)c(OC)nc3c2)cc1)C(=O)OCC', 'GI50', '> 29.9 µM (inactive)'),
  ('N#CC1C(=O)SC2c3ccccc3C(=O)c3ccccc3C12 (centres undefined)', 'GI50', '> 10 µM (inactive)'),
  ('CC(=O)OCC1OC(n2c(C)c(/N=N/c3ccc(Cl)cc3)c(C)c(C#N)c2=S)C(OC(C)=O)C(OC(C)=O)C1OC(C)=O (centres undefined)', 'GI50', '21.5 µM (inactive)');
